System: MDA-MB-231 (human mammary gland adenocarcinoma)
Test: MTS antiproliferative assay
Experimental: Cell culture the cell lines A2058 (human metastatic melanoma), BLM (human metastatic melanoma), HCT116 (human colorectal carcinoma), HeLa (human cervical adenocarcinoma), Jurkat (human leukaemic T cell lymphoma). […] Cells were maintained in standard conditions with an atmosphere containing 5% CO2 at 37 °C. […]

{"Compound": "O.O=C([O-])c1ccccn1.O=C([O-])c1ccccn1.O=C([O-])c1ccccn1.[Ga+3] [GaPic, [Ga(Pic)3]·H2O]", "IC50": "152 µM"}
{"Compound": "O.O=C([O-])c1cccc(C(=O)[O-])n1.O=C([O-])c1cccc(C(=O)[O-])n1.[Ga+3].[OH3+] [GaDpic, H3O[Ga(Dpic)2]·H2O]", "IC50": "308 µM"}
{"Compound": "O.O.O.O.O.O.O=C([O-])c1cc(O)cc(C(=O)[O-])n1.O=C([O-])c1cc(O)cc(C(=O)[O-])n1.[Ga+3].[Ga+3].[OH-].[OH-] [GaChel, [Ga(Chel)(H2O)(OH)]2·4H2O]", "IC50": "199 µM"}
{"Compound": "O.O.O=C([O-])c1cc(Cl)cc(C(=O)[O-])n1.O=C([O-])c1cc(Cl)cc(C(=O)[O-])n1.[Ga+3].[Ga+3].[OH-].[OH-] [GaCldpic, [Ga(Cldpic)(H2O)(OH)]2]", "IC50": "271 µM"}

----------
system: Jurkat (human leukaemic T cell lymphoma); assay: MTS antiproliferative assay; conditions: read-out: Cytotoxic activity IC50 Jurkat; MTS, 72 h of incubation

{"Compound": "N.N.[Cl][Pt][Cl] [cisPt, cisplatin]", "IC50 / µM": 6.3}

----------
test system: HeLa (human cervical adenocarcinoma); experiment: MTS antiproliferative assay; conditions: read-out: Cytotoxic activity IC50 HeLa; MTS, 72 h of incubation
pIC50: −log10 of the molar value.

{"Compound": "N.N.[Cl][Pt][Cl] [cisPt, cisplatin]", "pIC50": 4.45}

----------
test system: human dermal fibroblasts (HDF); experiment: MTS antiproliferative assay (non-cancer cells); conditions: read-out: Cytotoxic activity IC50 HDF; MTS, 72 h of incubation
pIC50: −log10 of the molar value.

{"Compound": "N.N.[Cl][Pt][Cl] [cisPt, cisplatin]", "pIC50": 4.40}

----------
The reader will find reported Stern–Volmer binding constant Ksv BSA values listed item by item below.
target: bovine serum albumin (BSA) (Bos taurus); construct: purchased Sigma-Aldrich Chemicals; test: BSA fluorescence quenching (Stern-Volmer); type: binding; settings: 0.01 M PBS buffer pH 7.4, 25 °C, λex = 280 nm
Sequence (P02769 25-607): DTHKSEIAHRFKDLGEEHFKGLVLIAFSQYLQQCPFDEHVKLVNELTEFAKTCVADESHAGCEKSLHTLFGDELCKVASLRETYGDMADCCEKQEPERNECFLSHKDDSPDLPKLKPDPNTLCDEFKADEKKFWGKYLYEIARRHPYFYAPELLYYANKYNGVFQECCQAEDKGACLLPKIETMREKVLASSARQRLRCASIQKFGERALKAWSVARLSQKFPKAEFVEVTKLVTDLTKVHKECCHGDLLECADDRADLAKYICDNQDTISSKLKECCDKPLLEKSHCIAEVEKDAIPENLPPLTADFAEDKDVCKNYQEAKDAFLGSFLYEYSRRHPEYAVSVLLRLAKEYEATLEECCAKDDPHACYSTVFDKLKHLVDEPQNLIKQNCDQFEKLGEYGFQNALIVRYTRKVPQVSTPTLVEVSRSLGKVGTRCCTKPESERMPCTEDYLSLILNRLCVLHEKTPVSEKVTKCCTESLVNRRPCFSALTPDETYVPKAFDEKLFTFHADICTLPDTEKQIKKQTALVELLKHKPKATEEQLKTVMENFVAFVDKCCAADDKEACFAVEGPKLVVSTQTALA
Property measured: Stern–Volmer binding constant Ksv BSA

{"Compound": "O.O=C([O-])c1ccccn1.O=C([O-])c1ccccn1.O=C([O-])c1ccccn1.[Ga+3] [GaPic, [Ga(Pic)3]·H2O]", "Reported result": "46700 M⁻¹"}
{"Compound": "O=C(O)c1cccc(C(=O)O)n1", "Reported result": "28700 M⁻¹"}
{"Compound": "O=C(O)c1ccccn1", "Reported result": "6800 M⁻¹"}
{"Compound": "O.O=C([O-])c1cccc(C(=O)[O-])n1.O=C([O-])c1cccc(C(=O)[O-])n1.[Ga+3].[OH3+] [GaDpic, H3O[Ga(Dpic)2]·H2O]", "Reported result": "68500 M⁻¹"}
